Target: Neuromedin-U receptor 1 (Homo sapiens) (UniProt Q9HB89)
Sequence (whole entry): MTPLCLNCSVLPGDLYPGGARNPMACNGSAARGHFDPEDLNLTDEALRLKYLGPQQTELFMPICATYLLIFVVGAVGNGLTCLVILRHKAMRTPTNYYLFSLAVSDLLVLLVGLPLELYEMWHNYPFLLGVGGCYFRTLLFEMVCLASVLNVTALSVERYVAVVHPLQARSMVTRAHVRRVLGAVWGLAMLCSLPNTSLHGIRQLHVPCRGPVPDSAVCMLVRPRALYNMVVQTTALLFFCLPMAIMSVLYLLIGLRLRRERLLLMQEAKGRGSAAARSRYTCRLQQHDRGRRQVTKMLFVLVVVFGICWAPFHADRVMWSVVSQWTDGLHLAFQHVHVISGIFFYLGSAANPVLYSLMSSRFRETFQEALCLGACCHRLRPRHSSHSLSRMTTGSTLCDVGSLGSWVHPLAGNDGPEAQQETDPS
Assay: Agonist activity at human NMUR1 expressed in CHO cells assessed as intracellular calcium flux at 1 and 10 nM by Fluo-4 AM dye based fluorometric imaging method relative to 1000 nM human neuromedin U
Assay type: functional, cell-based
Active and inactive are the calls of the source. No cut-off for these calls is given here. Non-standard residues stand in square brackets, D forms with d. Residues, ends and D or L forms follow the SMILES beside them. *: point of attachment. Propanoyl(3-(3-pyridyl)) = O=C(CCc1cccnc1)*; Phe(4-F) = N[C@@H](Cc1ccc(F)cc1)C(=O)O; Acetyl(2-thienyl) = O=C(Cc1cccs1)*; 4Pal = N[C@@H](Cc1ccncc1)C(=O)O; 2Thi = N[C@@H](Cc1cccs1)C(=O)O; PhAc = O=C(Cc1ccccc1)*; X1 = O=C(CCc1cccs1)*
metric: Activity

Known Activity results, listed for orientation:
* N=C(N)NCCC[C@H](NC(=O)[C@@H]1CCCN1C(=O)[C@H](CCCNC(=N)N)NC(=O)[C@H](Cc1ccccc1)NC(=O)[C@H](Cc1ccccc1)NC(=O)Cc1ccccc1)C(=O)N[C@@H](CC(N)=O)C(N)=O (PhAc-FFRPRN-NH2) | inactive
* N=C(N)NCCC[C@H](NC(=O)[C@@H]1CCCN1C(=O)[C@H](CCCNC(=N)N)NC(=O)[C@H](Cc1c[nH]cn1)NC(=O)[C@H](Cc1c[nH]c2ccccc12)NC(=O)Cc1cccs1)C(=O)N[C@@H](CC(N)=O)C(N)=O ({Acetyl(2-thienyl)}-WHRPRN-NH2) | inactive
* N=C(N)NCCC[C@H](NC(=O)[C@@H]1CCCN1C(=O)[C@H](CCCNC(=N)N)NC(=O)[C@H](Cc1ccncc1)NC(=O)[C@H](Cc1c[nH]c2ccccc12)NC(=O)Cc1cccs1)C(=O)N[C@@H](CC(N)=O)C(N)=O ({Acetyl(2-thienyl)}-W[4Pal]RPRN-NH2) | inactive
* N=C(N)NCCC[C@H](NC(=O)[C@@H]1CCCN1C(=O)[C@H](CCCNC(=N)N)NC(=O)[C@H](Cc1ccccc1)NC(=O)[C@H](Cc1ccccc1)NC(=O)CCc1cccnc1)C(=O)N[C@@H](CC(N)=O)C(N)=O ({Propanoyl(3-(3-pyridyl))}-FFRPRN-NH2) | Active
* N=C(N)NCCC[C@H](NC(=O)[C@@H]1CCCN1C(=O)[C@H](CCCNC(=N)N)NC(=O)[C@H](Cc1ccccc1)NC(=O)[C@H](Cc1c[nH]c2ccccc12)NC(=O)Cc1cccs1)C(=O)N[C@@H](CC(N)=O)C(N)=O ({Acetyl(2-thienyl)}-WFRPRN-NH2) | Active

// Activity (Neuromedin-U receptor 1 (Homo sapiens) (UniProt Q9HB89)) for N=C(N)NCCC[C@H](NC(=O)[C@@H]1CCCN1C(=O)[C@H](CCCNC(=N)N)NC(=O)[C@H](Cc1ccc(F)cc1)NC(=O)[C@H](Cc1c[nH]c2ccccc12)NC(=O)Cc1cccs1)C(=O)N[C@@H](CC(N)=O)C(N)=O ({Acetyl(2-thienyl)}-W[Phe(4-F)]RPRN-NH2) = Active

// Activity (Neuromedin-U receptor 1 (Homo sapiens) (UniProt Q9HB89)) for N=C(N)NCCC[C@H](NC(=O)[C@@H]1CCCN1C(=O)[C@H](CCCNC(=N)N)NC(=O)[C@H](Cc1cccs1)NC(=O)[C@H](Cc1c[nH]c2ccccc12)NC(=O)Cc1cccs1)C(=O)N[C@@H](CC(N)=O)C(N)=O ({Acetyl(2-thienyl)}-W[2Thi]RPRN-NH2) = Active

// Activity (Neuromedin-U receptor 1 (Homo sapiens) (UniProt Q9HB89)) for N=C(N)NCCC[C@H](NC(=O)[C@@H]1CCCN1C(=O)[C@H](CCCNC(=N)N)NC(=O)[C@H](Cc1ccccc1)NC(=O)[C@H](Cc1ccccc1)NC(=O)CCc1cccs1)C(=O)N[C@@H](CC(N)=O)C(N)=O (X1-FFRPRN-NH2) = Active

###

assay: Drug metabolism in 25% rat serum assessed as drug recovery at 1 mM incubated for 10 mins at 37 degC by RP-HPLC method; type: ADME, cell-free; details: read-out: Drug recovery
metric: remaining at 10 min, 1000 µM (%)
Form entry: value (%) — number only.

Reported remaining at 10 min, 1000 µM ( H-FLFRPRN-NH2 ) = 37

###

molecular target: Neuromedin-U receptor 1 (Homo sapiens) (UniProt Q9HB89); test: Agonist activity at human NMUR1 expressed in CHO cells assessed as intracellular calcium flux at 1 and 10 nM by Fluo-4 AM dye based fluorometric imaging method relative to 1000 nM human neuromedin U; type: functional, cell-based
Activity calls are given as the source filed them. No cut-off for these calls is given here. Residues, ends and D or L forms follow the SMILES beside them. *: point of attachment. Acetyl(2-thienyl) = O=C(Cc1cccs1)*; Hydrocinnamoyl = O=C(CCc1ccccc1)*
Your reply should match one of these outcome classes. active, inactive

## Task Kindly provide the recorded test outcome for the following compound: N=C(N)NCCC[C@H](NC(=O)[C@@H]1CCCN1C(=O)[C@H](CCCNC(=N)N)NC(=O)[C@H](Cc1ccccc1)NC(=O)[C@H](Cc1ccccc1)NC(=O)Cc1cccs1)C(=O)N[C@@H](CC(N)=O)C(N)=O ({Acetyl(2-thienyl)}-FFRPRN-NH2)
## Result active

## Task Kindly provide the recorded test outcome for the following compound: CC(C)C[C@H](NC(=O)CCc1ccccc1)C(=O)N[C@@H](Cc1ccccc1)C(=O)N[C@@H](CCCNC(=N)N)C(=O)N1CCC[C@H]1C(=O)N[C@@H](CCCNC(=N)N)C(=O)N[C@@H](CC(N)=O)C(N)=O (Hydrocinnamoyl-LFRPRN-NH2)
## Result active

## Task Kindly provide the recorded test outcome for the following compound: N=C(N)NCCC[C@H](NC(=O)[C@@H]1CCCN1C(=O)[C@H](CCCNC(=N)N)NC(=O)[C@H](Cc1ccccc1)NC(=O)[C@H](Cc1ccccc1)NC(=O)CCc1ccccc1)C(=O)N[C@@H](CC(N)=O)C(N)=O (Hydrocinnamoyl-FFRPRN-NH2)
## Result inactive

###

target: Neuromedin-U receptor 2 (Homo sapiens); assay: Agonist activity at human NMUR2 expressed in CHO cells assessed as intracellular calcium flux at 1 and 10 nM by Fluo-4 AM dye based fluorometric imaging method relative to 1000 nM human neuromedin U; format: functional, cell-based
Calls of active or inactive are those of the source. No cut-off for these calls is given here. Non-standard residues stand in square brackets, D forms with d. Residues, ends and D or L forms follow the SMILES beside them. *: point of attachment. Acetyl(2-thienyl) = O=C(Cc1cccs1)*; 4Pal = N[C@@H](Cc1ccncc1)C(=O)O; PhAc = O=C(Cc1ccccc1)*
metric: Activity

- N=C(N)NCCC[C@H](NC(=O)[C@@H]1CCCN1C(=O)[C@H](CCCNC(=N)N)NC(=O)[C@H](Cc1ccncc1)NC(=O)[C@H](Cc1c[nH]c2ccccc12)NC(=O)Cc1cccs1)C(=O)N[C@@H](CC(N)=O)C(N)=O ({Acetyl(2-thienyl)}-W[4Pal]RPRN-NH2): inactive
- N=C(N)NCCC[C@H](NC(=O)[C@@H]1CCCN1C(=O)[C@H](CCCNC(=N)N)NC(=O)[C@H](Cc1ccccc1)NC(=O)[C@H](Cc1ccccc1)NC(=O)Cc1ccccc1)C(=O)N[C@@H](CC(N)=O)C(N)=O (PhAc-FFRPRN-NH2): inactive

###

target: Neuromedin-U receptor 2 (Homo sapiens, UniProt Q9GZQ4); experiment: Agonist activity at human NMUR2 expressed in CHO cells assessed as intracellular calcium flux at 1 and 10 nM by Fluo-4 AM dye based fluorometric imaging method relative to 1000 nM human neuromedin U; assay type: functional, cell-based
Sequence (Q9GZQ4 whole entry): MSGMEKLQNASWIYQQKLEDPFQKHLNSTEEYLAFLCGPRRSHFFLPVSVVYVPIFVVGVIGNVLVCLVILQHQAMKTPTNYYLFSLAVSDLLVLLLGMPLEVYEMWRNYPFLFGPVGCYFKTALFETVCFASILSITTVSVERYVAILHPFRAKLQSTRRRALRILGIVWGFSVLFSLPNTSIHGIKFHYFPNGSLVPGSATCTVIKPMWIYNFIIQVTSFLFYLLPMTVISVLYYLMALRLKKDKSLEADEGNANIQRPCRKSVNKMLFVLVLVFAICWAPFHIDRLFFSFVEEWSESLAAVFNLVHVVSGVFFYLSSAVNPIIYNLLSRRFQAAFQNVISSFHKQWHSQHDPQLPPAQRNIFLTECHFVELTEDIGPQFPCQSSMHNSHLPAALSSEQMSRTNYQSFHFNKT
Activity calls are given as the source filed them. The rule behind the calls is not given here. Residues, ends and D or L forms follow the SMILES beside them. *: point of attachment. Acetyl(2-thienyl) = O=C(Cc1cccs1)*
metric: Activity

* N=C(N)NCCC[C@H](NC(=O)[C@@H]1CCCN1C(=O)[C@H](CCCNC(=N)N)NC(=O)[C@H](Cc1ccccc1)NC(=O)[C@H](Cc1ccccc1)NC(=O)Cc1cccs1)C(=O)N[C@@H](CC(N)=O)C(N)=O ({Acetyl(2-thienyl)}-FFRPRN-NH2) | Active
* N=C(N)NCCC[C@H](NC(=O)[C@@H]1CCCN1C(=O)[C@H](CCCNC(=N)N)NC(=O)[C@H](Cc1ccccc1)NC(=O)[C@H](Cc1c[nH]c2ccccc12)NC(=O)Cc1cccs1)C(=O)N[C@@H](CC(N)=O)C(N)=O ({Acetyl(2-thienyl)}-WFRPRN-NH2) | Active

From: ChEMBL document CHEMBL3425508
